System: MCF7
Test: Cytotoxicity against human MCF7 cells after 72 hrs by MTT assay
Format: functional
Conditions: MCF7, 72 h
Experimental endpoint: LC50

CCCCC[Se]c1nc(N)c2cccnc2n1 | 85 µM
COc1ccc(CNc2nc(S)nc3ccccc23)cc1 | 78.4 µM

Name the recorded LC50 for COc1ccc(CNc2nc([SeH])nc3ccccc23)cc1 .
> 100 µM

Entry under review: CCCCC[Se]c1nc([Se]CCCCC)c2cccnc2n1 . Reported LC50?
94.6 µM

Quick check: LC50 of C[Se]c1nc([Se]C)c2ccccc2n1 ?
> 100 µM

----------
Assay: Cytotoxicity against human 184B5 cells after 72 hrs by MTT assay
Assay type: cell-based
Settings: 184b5, 72 h
# Lookup of reported LC50 keyed by entry

As a guide, the following entries are already answered.
COc1ccc(CNc2nc(SC)nc3ccccc23)cc1 | > 100 µM
CSc1ccc(CNc2nc([SeH])nc3ccccc23)cc1 | > 100 µM
CSc1nc(NCCc2ccccc2)c2ccccc2n1 | 88.58 µM
CSc1nc(NCCCCc2ccccc2)c2ccccc2n1 | 78.6 µM
COc1ccc(CNc2nc(SC)nc3ncccc23)cc1 | > 100 µM

Find the recorded LC50 belonging to CCCCC[Se]c1nc(NCc2ccccc2)c2ccccc2n1 and report it.
> 100 µM

Param item = [SeH]c1nc(NCc2ccccc2)c2cccnc2n1 ; retrieve measured LC50.
> 100 µM

Fill in: LC50 of COc1ccc(CNc2nc([SeH])nc3ccccc23)cc1 is ___
> 100 µM

What LC50 value was documented for this molecule, CCCCCSc1nc(O)c2ccccc2n1 ?
> 100 µM

Which LC50 is listed for CCCCC[Se]c1nc(NCc2ccc(SC)cc2)c2ccccc2n1 ?
> 100 µM

Name the recorded LC50 for COc1ccc(CNc2nc(S)nc3ccccc23)cc1 .
69.23 µM

Dear colleague, I am looking for the recorded LC50 of the following molecule: CSc1ccc(CNc2nc([Se]C)nc3ccccc23)cc1
> 100 µM

Data request, read-out LC50, for CSc1ccc(CNc2nc(SC)nc3ncccc23)cc1
5.64 µM

What value of LC50 has been recorded for this entry: CSc1nc(NCc2ccc([Se]C)cc2)c2ccccc2n1
> 100 µM

Returns the measured LC50 for the input molecule. Input: C[Se]c1nc(N)c2cccnc2n1
> 100 µM
